B1: TPR t1 (parent)
chain: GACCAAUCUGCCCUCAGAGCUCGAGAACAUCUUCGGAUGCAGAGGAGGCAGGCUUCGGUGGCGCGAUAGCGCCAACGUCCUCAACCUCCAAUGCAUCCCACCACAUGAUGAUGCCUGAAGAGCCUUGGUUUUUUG

variants of: B1; test: polymerase ribozyme fitness, log enrichment relative to wild type (log ratio); higher = more active; in vitro selection for triplet polymerase activity
reportedEndpoint: polymerase ribozyme fitness (log ratio)
Enter a number only.

mutant="U38G C49A U54C G69U C104A" reportedendpoint="polymerase ribozyme fitness (log ratio)" testresult=-0.856
mutant="C56U C72U" reportedendpoint="polymerase ribozyme fitness (log ratio)" testresult=-0.11
mutant="C70U C80A" reportedendpoint="polymerase ribozyme fitness (log ratio)" testresult=-5.7
mutant="G58A U125G" reportedendpoint="polymerase ribozyme fitness (log ratio)" testresult=-0.683
mutant="C8G C12U C97G" reportedendpoint="polymerase ribozyme fitness (log ratio)" testresult=-3.16
mutant="U14G A41C A74U A84C" reportedendpoint="polymerase ribozyme fitness (log ratio)" testresult=-3.77
mutant="A91G U106G A111G" reportedendpoint="polymerase ribozyme fitness (log ratio)" testresult=-3.06
mutant="G19U G23C A27G A41C A46U G47C C70U C115U G135A" reportedendpoint="polymerase ribozyme fitness (log ratio)" testresult=-5.42

Which value of polymerase ribozyme fitness (log ratio) has been reported for G17C U106G C115G in the records?
0.318

Requested read-out: polymerase ribozyme fitness (log ratio). Entry: C8G G35C U131A
-5.09

Dear colleague, I am looking for the recorded polymerase ribozyme fitness (log ratio) of the following variant: U9C U21A C49G C101A
-1.26
